Where do these numbers come from? They come from paper PMC4666649.

# target: UniProt:P30542
# Sequence (P30542 whole entry): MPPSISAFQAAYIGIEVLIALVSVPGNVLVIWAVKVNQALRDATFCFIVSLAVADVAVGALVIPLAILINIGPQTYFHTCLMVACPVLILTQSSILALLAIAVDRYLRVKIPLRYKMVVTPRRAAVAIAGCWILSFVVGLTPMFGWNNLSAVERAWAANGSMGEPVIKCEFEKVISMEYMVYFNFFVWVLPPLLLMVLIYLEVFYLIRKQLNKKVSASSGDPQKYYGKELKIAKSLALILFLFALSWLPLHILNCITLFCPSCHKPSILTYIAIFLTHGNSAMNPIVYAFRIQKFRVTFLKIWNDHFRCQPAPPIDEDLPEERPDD
# measurement protocol: Radioligand binding at human A1 ARs, displacement of [3H]CCPA, membranes of transfected CHO cells
# experimental setup: competition with [3H]CCPA, total binding, single experiment (S2 Fig); read-out: Ki, hA1 AR, representative single experiment
result type: pKi
Scale for pKi: -log10 of concentration given in mol/L; no unit attached.

Short answer for "Cn1cc2c(nc(N)n3nc(-c4cnn(Cc5cccc(C(F)(F)F)c5)c4)nc23)n1" : pKi was 6.12

* * *

# target: hA3 AR (Homo sapiens, UniProt P0DMS8)
# Construct: expressed in transfected cells; host or cells: CHO cells, stably transfected
# Sequence (P0DMS8 whole entry): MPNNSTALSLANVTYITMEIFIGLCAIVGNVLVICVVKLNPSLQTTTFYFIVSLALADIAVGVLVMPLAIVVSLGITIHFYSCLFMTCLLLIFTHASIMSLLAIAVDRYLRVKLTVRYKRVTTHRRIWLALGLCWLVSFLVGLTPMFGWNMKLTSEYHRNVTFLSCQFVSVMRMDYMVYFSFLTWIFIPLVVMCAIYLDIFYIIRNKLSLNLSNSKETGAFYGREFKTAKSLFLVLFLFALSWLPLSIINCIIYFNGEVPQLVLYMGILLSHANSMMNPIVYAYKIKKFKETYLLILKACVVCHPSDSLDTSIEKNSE
# measurement protocol: Radioligand binding at human A3 ARs, displacement of [3H]HEMADO, membranes of transfected CHO cells
# experimental setup: ratio of Ki values; for reference compounds from literature affinities (Borea et al. unless otherwise indicated)
Listed here are compounds together with their documented Ki, hA2a/hA3 (selectivity).

// Ki, hA2a/hA3 (selectivity) (hA3 AR (Homo sapiens, UniProt P0DMS8)) for "Cn1cc2c(nc(NC(=O)Cc3ccccc3)n3nc(-c4cnn(Cc5cccc(C(F)(F)F)c5)c4)nc23)n1" = > 9091
